Values from patent US9233968B1

- target: UniProtKB P35968
- method notes: VEGFR2 Cellular Assay (FLIPR, VEGF induced intracellular calcium in HUVEC)
- reported conditions: VEGF165 stimulation 10 ng/mL, read-out: Receptor VEGFR2 IC50
pIC50: −log10 of the molar value.
Values of pIC50 greater than or equal to 6 map to True; values below map to False.

A selection of reference data follows.
{"molecule": "O=C(Nc1ccc(C#Cc2ccc3nc(NC(=O)Nc4cc(C(F)(F)F)ccc4F)cn3n2)cc1)Nc1cc(C(F)(F)F)ccc1F [Example 10]", "class label": "False"}
{"molecule": "Cc1cccc(NC(=O)Nc2ccc(C#Cc3ccc4nccn4n3)cc2)c1 [Example 3]", "class label": "True"}
{"molecule": "O=C(Nc1cccc(C#Cc2ccc3nccn3n2)c1)c1cc2ccccc2o1 [Example 25]", "class label": "False"}
{"molecule": "CC(=O)Nc1cn2nc(C#Cc3ccc(NC(=O)Nc4cccc(C)c4)cc3)ccc2n1 [Example 11]", "class label": "False"}
{"molecule": "Cc1ccc(F)c(NC(=O)Nc2cccc(C#Cc3cccc4[nH]nc(N)c34)c2)c1 [Example 31]", "class label": "True"}

q: Given the entry O=C(Nc1cccc(C#Cc2ccc3nccn3n2)c1)c1ccccc1 [Example 27] , answer whether its pIC50 meets or surpasses 6.
a: False

q: Input Nc1cn2nc(C#Cc3ccc(NC(=O)c4ccccc4)cc3)ccc2n1 [Example 19]
a: False

q: Same question, Cc1ccc(F)c(C(=O)Nc2ccc(C#Cc3ccc4nc(N)cn4n3)cc2)c1 [Example 20] this time
a: False

q: Likewise for Nc1n[nH]c2cccc(C#Cc3cccc(NC(=O)Nc4ccccc4)c3)c12 [Example 32] ?
a: True

q: Then what about the molecule O=C(Nc1ccc(C#Cc2ccc3nccn3n2)cc1)Nc1cc(C(F)(F)F)ccc1F [Example 9] ?
a: False

q: How about this molecule: O=C(Nc1ccc(C#Cc2ccc3nccn3n2)cc1)Nc1ccc(Cl)c(C(F)(F)F)c1 [Example 7]
a: False

q: Please do the same for Cc1ccc(F)c(NC(=O)Nc2ccc(C#Cc3cccc4[nH]nc(N)c34)cc2)c1 [Example 33] as well.
a: True

q: Please do the same for O=C(Nc1ccccc1)Nc1ccc(C#Cc2ccc3nccn3n2)cc1 [Example 8] as well.
a: False

q: # iterate: Nc1cn2nc(C#Cc3ccc(NC(=O)Nc4cc(C(F)(F)F)ccc4F)cc3)ccc2n1 [Example 4]
a: True

* * *

- target: VEGFR2 (Homo sapiens (Human))
- Sequence (P35968 20-1356): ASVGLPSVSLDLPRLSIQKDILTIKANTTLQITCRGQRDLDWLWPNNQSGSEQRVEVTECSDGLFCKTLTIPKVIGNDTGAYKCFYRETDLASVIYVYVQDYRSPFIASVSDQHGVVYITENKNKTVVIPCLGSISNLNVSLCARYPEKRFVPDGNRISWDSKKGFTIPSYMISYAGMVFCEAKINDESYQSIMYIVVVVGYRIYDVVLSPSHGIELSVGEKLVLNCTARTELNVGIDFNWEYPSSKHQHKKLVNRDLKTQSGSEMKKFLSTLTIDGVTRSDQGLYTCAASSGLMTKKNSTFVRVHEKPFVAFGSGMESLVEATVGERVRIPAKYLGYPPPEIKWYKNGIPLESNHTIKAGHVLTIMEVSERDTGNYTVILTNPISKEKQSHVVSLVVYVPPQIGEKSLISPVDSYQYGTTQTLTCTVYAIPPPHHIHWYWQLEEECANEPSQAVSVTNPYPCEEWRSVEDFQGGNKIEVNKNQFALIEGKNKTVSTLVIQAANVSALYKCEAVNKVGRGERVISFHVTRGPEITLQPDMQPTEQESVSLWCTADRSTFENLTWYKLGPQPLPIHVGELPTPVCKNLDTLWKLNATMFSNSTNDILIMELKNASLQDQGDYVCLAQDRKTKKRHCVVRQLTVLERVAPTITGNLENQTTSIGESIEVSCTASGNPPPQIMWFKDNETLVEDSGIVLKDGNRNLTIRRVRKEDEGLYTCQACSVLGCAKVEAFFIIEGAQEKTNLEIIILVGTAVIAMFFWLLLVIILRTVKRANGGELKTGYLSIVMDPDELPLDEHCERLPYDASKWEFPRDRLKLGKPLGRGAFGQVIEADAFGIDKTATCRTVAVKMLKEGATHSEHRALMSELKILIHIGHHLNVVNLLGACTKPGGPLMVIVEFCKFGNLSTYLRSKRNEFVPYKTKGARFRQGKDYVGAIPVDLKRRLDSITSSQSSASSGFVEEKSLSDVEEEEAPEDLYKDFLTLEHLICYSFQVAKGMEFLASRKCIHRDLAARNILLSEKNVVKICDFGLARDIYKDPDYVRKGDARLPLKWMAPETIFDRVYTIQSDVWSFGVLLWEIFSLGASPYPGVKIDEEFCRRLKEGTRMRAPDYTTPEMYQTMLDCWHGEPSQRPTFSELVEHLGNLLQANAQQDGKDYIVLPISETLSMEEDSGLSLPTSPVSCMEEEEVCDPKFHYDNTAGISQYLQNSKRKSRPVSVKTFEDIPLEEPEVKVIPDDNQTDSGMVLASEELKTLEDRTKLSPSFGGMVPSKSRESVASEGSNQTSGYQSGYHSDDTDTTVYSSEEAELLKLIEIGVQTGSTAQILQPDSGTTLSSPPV
- method notes: VEGFR2 Cellular Assay (FLIPR, VEGF induced intracellular calcium in HUVEC)
- reported conditions: VEGF165 stimulation 10 ng/mL, read-out: Receptor VEGFR2 IC50
pIC50: −log10 of the molar value.
# label = Yes if pIC50 >= 6 else No

Consider the following illustrative entries.
{"sample smiles": "Cc1cccc(NC(=O)Nc2ccc(C#Cc3ccc4nc(N)cn4n3)cc2)c1", "class label": "Yes"}
{"sample smiles": "Cc1ccc(F)c(C(=O)Nc2cccc(C#Cc3ccc4nccn4n3)c2)c1", "class label": "No"}
{"sample smiles": "Cc1cccc(NC(=O)Nc2ccc(C#Cc3ccc4nc(NC(=O)C5CC5)cn4n3)cc2)c1", "class label": "No"}
{"sample smiles": "Nc1ccc(C#Cc2ccc3nc(NC(=O)Nc4ccc(F)c(Cl)c4)cn3n2)cc1", "class label": "No"}

// switching to the query compound
q: Reported pIC50 at or above 6? `O=C(Nc1ccc(C#Cc2ccc3nc(NC(=O)Nc4ccc(F)c(Cl)c4)cn3n2)cc1)Nc1ccc(F)c(Cl)c1`
a: No

* * *

- target: PDGFRβ (cytoplasmic domain PDGFR-b protein) (Homo sapiens (Human), UniProt P09619)
- Sequence (P09619 554-1106): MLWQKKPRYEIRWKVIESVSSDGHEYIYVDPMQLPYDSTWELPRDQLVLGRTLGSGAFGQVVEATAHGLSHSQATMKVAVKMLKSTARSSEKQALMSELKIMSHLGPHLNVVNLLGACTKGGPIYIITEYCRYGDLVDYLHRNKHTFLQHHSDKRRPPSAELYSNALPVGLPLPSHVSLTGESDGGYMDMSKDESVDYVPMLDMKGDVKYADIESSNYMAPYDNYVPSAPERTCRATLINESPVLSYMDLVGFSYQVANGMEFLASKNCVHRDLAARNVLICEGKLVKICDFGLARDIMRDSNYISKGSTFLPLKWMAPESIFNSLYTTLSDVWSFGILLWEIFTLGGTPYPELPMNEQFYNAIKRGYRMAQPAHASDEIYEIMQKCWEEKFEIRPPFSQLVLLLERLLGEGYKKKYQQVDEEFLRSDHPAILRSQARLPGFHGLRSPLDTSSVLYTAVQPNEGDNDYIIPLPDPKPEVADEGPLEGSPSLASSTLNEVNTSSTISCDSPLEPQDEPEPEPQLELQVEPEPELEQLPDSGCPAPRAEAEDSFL
pIC50: −log10 of the molar value.
Think of 7 as a floor: if pIC50 stands on it or above, it is 1; beneath it, -1.

{"molecule": "O=C(Nc1cccc(C#Cc2ccc3nccn3n2)c1)c1cccc(C(F)(F)F)c1 [Example 22]", "class label": -1}

q: Reported pIC50 at or above 7? Cc1cccc(NC(=O)Nc2ccc(C#Cc3ccc4nc(N)cn4n3)cc2)c1 [Example 1]
a: 1

q: Moving on to the next molecule: O=C(Nc1cccc(C#Cc2ccc3nccn3n2)c1)c1ccccc1 [Example 27]
a: 1

q: Another molecule to look at: Cc1ccc(F)c(C(=O)Nc2cccc(C#Cc3ccc4nccn4n3)c2)c1 [Example 26]
a: -1

q: Next record, please: Cc1ccc(F)c(C(=O)Nc2cccc(C#Cc3ccc4nc(N)cn4n3)c2)c1 [Example 21]
a: -1

q: Moving on to the next molecule: Nc1cn2nc(C#Cc3ccc(NC(=O)Nc4cc(C(F)(F)F)ccc4F)cc3)ccc2n1 [Example 4]
a: 1

* * *

- target: UniProt:P09619
- method notes: PDGFRβ Cellular Assay (FLIPR, PDGF-induced intracellular calcium in NHDF-Ad)
- reported conditions: PDGF-BB stimulation 30 ng/mL, read-out: Receptor PDGFRβ IC50
readout name: IC50

{"sample smiles": "Cc1ccc(F)c(C(=O)Nc2ccc(C#Cc3ccc4nc(N)cn4n3)cc2)c1", "IC50": "> 10000 nM"}
{"sample smiles": "CC(=O)Nc1cn2nc(C#Cc3ccc(NC(=O)Nc4cccc(C)c4)cc3)ccc2n1", "IC50": "> 10000 nM"}
{"sample smiles": "O=C(Nc1ccc(C#Cc2ccc3nc(NC(=O)Nc4ccc(F)c(Cl)c4)cn3n2)cc1)Nc1ccc(F)c(Cl)c1", "IC50": "3630 nM"}

q: Return reported IC50; argument: `Nc1cn2nc(C#Cc3ccc(NC(=O)Nc4cc(C(F)(F)F)ccc4F)cc3)ccc2n1`
a: 516 nM

q: Could you do the same for `O=C(Nc1ccc(C#Cc2ccc3nccn3n2)cc1)Nc1cccc(C(F)(F)F)c1` , please?
a: 457 nM

q: For `Cc1cccc(NC(=O)Nc2ccc(C#Cc3ccc4nccn4n3)cc2)c1` then?
a: 70 nM

* * *

The reader will find IC50 measurements below, all made with VEGFR2 (cytoplasmic domain KDR protein) (Homo sapiens (Human), UniProt P35968).
Sequence (P35968 786-1356): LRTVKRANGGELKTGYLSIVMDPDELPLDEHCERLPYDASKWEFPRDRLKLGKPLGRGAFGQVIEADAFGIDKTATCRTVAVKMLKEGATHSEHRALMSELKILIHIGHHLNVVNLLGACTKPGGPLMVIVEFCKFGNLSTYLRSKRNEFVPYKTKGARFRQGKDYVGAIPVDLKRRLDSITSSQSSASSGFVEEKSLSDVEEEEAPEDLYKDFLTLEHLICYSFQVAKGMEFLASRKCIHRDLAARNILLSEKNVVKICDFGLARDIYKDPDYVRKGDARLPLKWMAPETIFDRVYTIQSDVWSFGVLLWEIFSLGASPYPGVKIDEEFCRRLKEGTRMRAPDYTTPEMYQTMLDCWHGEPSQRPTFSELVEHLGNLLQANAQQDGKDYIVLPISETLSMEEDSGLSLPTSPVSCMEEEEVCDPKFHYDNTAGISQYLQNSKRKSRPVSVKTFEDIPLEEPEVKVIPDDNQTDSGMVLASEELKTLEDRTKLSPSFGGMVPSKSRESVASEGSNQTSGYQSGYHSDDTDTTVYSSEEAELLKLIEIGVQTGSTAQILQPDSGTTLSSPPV
Output spec: scalar in nM, unitless text.

Take a look at these entries with their results.
{"sample smiles": "O=C(Nc1ccccc1)Nc1ccc(C#Cc2ccc3nccn3n2)cc1", "IC50 (nM)": 267}
{"sample smiles": "O=C(Nc1cccc(C#Cc2ccc3nccn3n2)c1)c1cccc(C(F)(F)F)c1", "IC50 (nM)": 279}

q: Item under review: `O=C(Nc1cccc(C#Cc2ccc3nccn3n2)c1)c1ccc(F)c(Cl)c1` . Reported IC50?
a: 464

q: Another compound to check: `O=C(Nc1ccc(C#Cc2ccc3nccn3n2)cc1)Nc1ccc(Cl)c(C(F)(F)F)c1`
a: 127

* * *

// endpoint pIC50 / system VEGFR2 (cytoplasmic domain KDR protein) (Homo sapiens (Human), UniProt P35968)
Keep it numeric: pIC50 is minus log10 of the concentration in mol/L.

q: Bench note: what pIC50 did Nc1ccc(C#Cc2ccc3nc(NC(=O)Nc4ccc(F)c(Cl)c4)cn3n2)cc1 [Example 14] show?
a: 5.77

q: What do you have for O=C(Nc1ccc(C#Cc2ccc3nccn3n2)cc1)Nc1cccc(C(F)(F)F)c1 [Example 2] ?
a: 7.33

q: Try this compound next: Cc1ccc(F)c(NC(=O)Nc2cccc(C#Cc3ccc4nccn4n3)c2)c1 [Example 29]
a: 5.33

q: Same question for Cc1ccc(F)c(C(=O)Nc2cccc(C#Cc3ccc4nc(N)cn4n3)c2)c1 [Example 21] please.
a: 7.06

* * *

- target: VEGFR2 (Homo sapiens (Human))
- method notes: VEGFR2 Cellular Assay (FLIPR, VEGF induced intracellular calcium in HUVEC)
- reported conditions: VEGF165 stimulation 10 ng/mL, read-out: Receptor VEGFR2 IC50
pIC50 reference
Scale: pIC50 equals -log10([C]), with [C] in mol/L.

Look over these answered cases.
{"sample smiles": "O=C(Nc1cccc(C#Cc2ccc3nccn3n2)c1)c1ccc(F)c(Cl)c1", "target": "VEGFR2 (Homo sapiens (Human))", "pIC50": 5.84}
{"sample smiles": "Cc1cccc(C(=O)Nc2cccc(C#Cc3ccc4nccn4n3)c2)c1", "target": "VEGFR2 (Homo sapiens (Human))", "pIC50": 6.06}

q: Record lookup: for VEGFR2 (Homo sapiens (Human)), what pIC50 belongs to `O=C(Nc1ccc(C#Cc2ccc3nccn3n2)cc1)Nc1cccc(C(F)(F)F)c1` ?
a: 6.02

* * *

- target: PDGFRβ (Homo sapiens (Human))
- Sequence (P09619 33-1106): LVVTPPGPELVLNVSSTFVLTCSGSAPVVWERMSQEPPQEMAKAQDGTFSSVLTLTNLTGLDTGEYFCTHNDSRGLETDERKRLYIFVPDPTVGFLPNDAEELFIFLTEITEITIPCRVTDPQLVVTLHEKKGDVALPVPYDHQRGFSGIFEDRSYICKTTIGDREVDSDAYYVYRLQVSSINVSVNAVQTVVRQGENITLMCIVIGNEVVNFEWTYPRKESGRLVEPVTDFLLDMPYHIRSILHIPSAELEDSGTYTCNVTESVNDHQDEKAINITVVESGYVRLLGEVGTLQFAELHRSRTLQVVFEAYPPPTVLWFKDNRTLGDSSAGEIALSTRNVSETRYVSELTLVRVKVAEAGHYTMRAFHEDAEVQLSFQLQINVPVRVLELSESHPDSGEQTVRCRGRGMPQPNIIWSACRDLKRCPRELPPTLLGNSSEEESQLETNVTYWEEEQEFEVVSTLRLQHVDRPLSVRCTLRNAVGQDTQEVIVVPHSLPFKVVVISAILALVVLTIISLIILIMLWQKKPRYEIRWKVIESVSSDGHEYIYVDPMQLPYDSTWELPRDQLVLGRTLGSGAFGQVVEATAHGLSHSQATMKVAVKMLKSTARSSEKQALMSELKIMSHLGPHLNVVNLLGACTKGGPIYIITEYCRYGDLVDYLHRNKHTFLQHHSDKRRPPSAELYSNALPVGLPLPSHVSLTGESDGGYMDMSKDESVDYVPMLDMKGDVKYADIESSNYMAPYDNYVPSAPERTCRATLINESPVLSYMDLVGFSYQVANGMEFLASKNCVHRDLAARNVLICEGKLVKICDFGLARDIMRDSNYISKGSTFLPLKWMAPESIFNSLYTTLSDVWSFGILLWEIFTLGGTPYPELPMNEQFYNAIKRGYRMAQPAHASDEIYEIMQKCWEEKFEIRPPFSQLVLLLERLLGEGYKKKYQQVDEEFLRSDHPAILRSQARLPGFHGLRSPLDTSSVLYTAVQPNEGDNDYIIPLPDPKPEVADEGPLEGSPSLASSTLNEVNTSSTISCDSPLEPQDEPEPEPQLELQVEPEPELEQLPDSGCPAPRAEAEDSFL
- method notes: PDGFRβ Cellular Assay (FLIPR, PDGF-induced intracellular calcium in NHDF-Ad)
- reported conditions: PDGF-BB stimulation 30 ng/mL, read-out: Receptor PDGFRβ IC50
Listing of recorded pIC50 by entry.
Reminder that pIC50 means the negative base-10 logarithm of the concentration expressed in mol/L.

Completed entries (count: 5):
{"sample smiles": "Nc1ccc(C#Cc2ccc3nc(NC(=O)Nc4ccc(F)c(Cl)c4)cn3n2)cc1", "value reported": 4.98}
{"sample smiles": "O=C(Nc1cccc(C#Cc2ccc3nccn3n2)c1)c1ccc(F)c(Cl)c1", "value reported": 5.57}
{"sample smiles": "Cc1ccc(F)c(C(=O)Nc2cccc(C#Cc3ccc4nc(N)cn4n3)c2)c1", "value reported": 6.43}
{"sample smiles": "O=C(Nc1cccc(C#Cc2ccc3nccn3n2)c1)c1cccc(C(F)(F)F)c1", "value reported": 5.79}
{"sample smiles": "Cc1cccc(NC(=O)Nc2ccc(C#Cc3ccc4nc(N)cn4n3)cc2)c1", "value reported": 6.64}

q: Which measured pIC50 value corresponds to `O=C(Nc1cccc(C#Cc2ccc3nccn3n2)c1)c1ccccc1` ?
a: 4.75
